Record form. Attribute: BAF/3 bioassay: fold increase in bioactivity as compared to the WT mouse leptin antagonist. Fill in for each entry.
# target_entity: long form of human leptin receptor (hLEPR) on BAF/3 or H-49 (HEK-293) cells (human), P48357
# Sequence (P48357 22-1165): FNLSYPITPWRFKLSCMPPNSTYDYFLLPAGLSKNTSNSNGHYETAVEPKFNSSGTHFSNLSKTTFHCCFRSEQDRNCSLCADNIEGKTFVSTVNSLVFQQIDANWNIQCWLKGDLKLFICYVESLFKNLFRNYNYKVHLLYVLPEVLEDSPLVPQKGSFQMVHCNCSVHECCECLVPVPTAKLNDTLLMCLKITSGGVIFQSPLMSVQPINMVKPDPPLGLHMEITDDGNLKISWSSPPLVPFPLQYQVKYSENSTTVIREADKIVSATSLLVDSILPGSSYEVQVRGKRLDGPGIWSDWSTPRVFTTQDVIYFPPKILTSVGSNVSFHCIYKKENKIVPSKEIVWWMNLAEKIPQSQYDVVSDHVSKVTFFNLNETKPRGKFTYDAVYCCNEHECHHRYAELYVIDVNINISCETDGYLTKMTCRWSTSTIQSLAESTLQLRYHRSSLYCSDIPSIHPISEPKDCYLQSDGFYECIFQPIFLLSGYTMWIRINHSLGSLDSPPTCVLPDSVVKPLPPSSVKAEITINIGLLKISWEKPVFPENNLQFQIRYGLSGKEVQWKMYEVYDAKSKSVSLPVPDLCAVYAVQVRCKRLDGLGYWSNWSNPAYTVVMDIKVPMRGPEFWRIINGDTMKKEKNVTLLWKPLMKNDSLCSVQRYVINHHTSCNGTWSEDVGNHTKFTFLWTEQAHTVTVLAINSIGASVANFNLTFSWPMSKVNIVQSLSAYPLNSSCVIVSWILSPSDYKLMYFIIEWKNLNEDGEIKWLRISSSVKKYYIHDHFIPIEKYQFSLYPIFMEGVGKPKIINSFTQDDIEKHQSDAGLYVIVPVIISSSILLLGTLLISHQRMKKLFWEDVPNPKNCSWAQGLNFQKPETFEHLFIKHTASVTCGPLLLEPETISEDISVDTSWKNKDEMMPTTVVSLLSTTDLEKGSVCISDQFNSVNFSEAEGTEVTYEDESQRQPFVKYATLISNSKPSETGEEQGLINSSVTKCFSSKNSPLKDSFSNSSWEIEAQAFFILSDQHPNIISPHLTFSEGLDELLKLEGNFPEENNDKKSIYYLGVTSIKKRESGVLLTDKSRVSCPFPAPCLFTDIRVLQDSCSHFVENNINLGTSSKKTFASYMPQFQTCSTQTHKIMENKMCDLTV
# assay_name: cell-based or functional assay
Write the answer as a number in fold, unit excluded.

Tell us which BAF/3 bioassay: fold increase in bioactivity as compared to the WT mouse leptin antagonist value is on record for mouse leptin antagonist H22 (T12I + L39A/D40A/F41A), P41160 22-167 (ligand) AVPIQKVQDDTKILIKTIVTRINDISHTQSVSAKQRVTGAAAIPGLHPILSLSKMDQTLAVYQQVLTSLPSQNVLQIANDLENLRDLLHLLAFSKSCSLPQTSGLQKPESLDGVLEASLYSTEVVALSRLQGSLQDILQQLDVSPEC
2.4

Tell us which BAF/3 bioassay: fold increase in bioactivity as compared to the WT mouse leptin antagonist value is on record for mouse leptin antagonist D23R/L39A/D40A/F41A (ligand, mature; also called D23R MLA) AVPIQKVQDDTKTLIKTIVTRINRISHTQSVSAKQRVTGAAAIPGLHPILSLSKMDQTLAVYQQVLTSLPSQNVLQIANDLENLRDLLHLLAFSKSCSLPQTSGLQKPESLDGVLEASLYSTEVVALSRLQGSLQDILQQLDVSPEC
8.6

Tell us which BAF/3 bioassay: fold increase in bioactivity as compared to the WT mouse leptin antagonist value is on record for mouse leptin antagonist D23G/L39A/D40A/F41A (ligand, mature) AVPIQKVQDDTKTLIKTIVTRINGISHTQSVSAKQRVTGAAAIPGLHPILSLSKMDQTLAVYQQVLTSLPSQNVLQIANDLENLRDLLHLLAFSKSCSLPQTSGLQKPESLDGVLEASLYSTEVVALSRLQGSLQDILQQLDVSPEC
2.5

Tell us which BAF/3 bioassay: fold increase in bioactivity as compared to the WT mouse leptin antagonist value is on record for mouse leptin antagonist H15 (D23G, L68M, S97F, S132Y + L39A/D40A/F41A), P41160 22-167 (ligand) AVPIQKVQDDTKTLIKTIVTRINGISHTQSVSAKQRVTGAAAIPGLHPILSLSKMDQTLAVYQQVLTSMPSQNVLQIANDLENLRDLLHLLAFSKSCFLPQTSGLQKPESLDGVLEASLYSTEVVALSRLQGYLQDILQQLDVSPEC
4.8

Tell us which BAF/3 bioassay: fold increase in bioactivity as compared to the WT mouse leptin antagonist value is on record for mouse leptin antagonist D23K/L39A/D40A/F41A (ligand, mature) AVPIQKVQDDTKTLIKTIVTRINKISHTQSVSAKQRVTGAAAIPGLHPILSLSKMDQTLAVYQQVLTSLPSQNVLQIANDLENLRDLLHLLAFSKSCSLPQTSGLQKPESLDGVLEASLYSTEVVALSRLQGSLQDILQQLDVSPEC
3.7

Tell us which BAF/3 bioassay: fold increase in bioactivity as compared to the WT mouse leptin antagonist value is on record for mouse leptin antagonist D23A/L39A/D40A/F41A (ligand, mature) AVPIQKVQDDTKTLIKTIVTRINAISHTQSVSAKQRVTGAAAIPGLHPILSLSKMDQTLAVYQQVLTSLPSQNVLQIANDLENLRDLLHLLAFSKSCSLPQTSGLQKPESLDGVLEASLYSTEVVALSRLQGSLQDILQQLDVSPEC
3.3

Tell us which BAF/3 bioassay: fold increase in bioactivity as compared to the WT mouse leptin antagonist value is on record for mouse leptin antagonist D23H/L39A/D40A/F41A (ligand, mature; also called H30 (antagonist); D23H MLA) AVPIQKVQDDTKTLIKTIVTRINHISHTQSVSAKQRVTGAAAIPGLHPILSLSKMDQTLAVYQQVLTSLPSQNVLQIANDLENLRDLLHLLAFSKSCSLPQTSGLQKPESLDGVLEASLYSTEVVALSRLQGSLQDILQQLDVSPEC
5

Tell us which BAF/3 bioassay: fold increase in bioactivity as compared to the WT mouse leptin antagonist value is on record for mouse leptin antagonist D23F/L39A/D40A/F41A (ligand, mature) AVPIQKVQDDTKTLIKTIVTRINFISHTQSVSAKQRVTGAAAIPGLHPILSLSKMDQTLAVYQQVLTSLPSQNVLQIANDLENLRDLLHLLAFSKSCSLPQTSGLQKPESLDGVLEASLYSTEVVALSRLQGSLQDILQQLDVSPEC
3.7

Tell us which BAF/3 bioassay: fold increase in bioactivity as compared to the WT mouse leptin antagonist value is on record for superactive mouse leptin antagonist (SMLA), D23L/L39A/D40A/F41A mouse leptin, P41160 22-167 (ligand) VPIQKVQDDTKTLIKTLVTRINLISHTQSVSAKQRVTGAAAIPGLHPILSLSKMDQTLAVYQQVLTSLPSQNVLQIANDLENLRDLLHLLAFSKSCSLPQTSGLQKPESLDGVLEASLYSTEVVALSRLQGSLQDILQQVDLSPGC
13.9

Tell us which BAF/3 bioassay: fold increase in bioactivity as compared to the WT mouse leptin antagonist value is on record for mouse leptin antagonist H19 (D23G, T37A, G44D + L39A/D40A/F41A), P41160 22-167 (ligand) AVPIQKVQDDTKTLIKTIVTRINGISHTQSVSAKQRVAGAAAIPDLHPILSLSKMDQTLAVYQQVLTSLPSQNVLQIANDLENLRDLLHLLAFSKSCSLPQTSGLQKPESLDGVLEASLYSTEVVALSRLQGSLQDILQQLDVSPEC
3.5

Tell us which BAF/3 bioassay: fold increase in bioactivity as compared to the WT mouse leptin antagonist value is on record for mouse leptin antagonist D23W/L39A/D40A/F41A (ligand, mature) AVPIQKVQDDTKTLIKTIVTRINWISHTQSVSAKQRVTGAAAIPGLHPILSLSKMDQTLAVYQQVLTSLPSQNVLQIANDLENLRDLLHLLAFSKSCSLPQTSGLQKPESLDGVLEASLYSTEVVALSRLQGSLQDILQQLDVSPEC
4.2

Tell us which BAF/3 bioassay: fold increase in bioactivity as compared to the WT mouse leptin antagonist value is on record for mouse leptin antagonist H16 (D23G, G112S + L39A/D40A/F41A), P41160 22-167 (ligand) AVPIQKVQDDTKTLIKTIVTRINGISHTQSVSAKQRVTGAAAIPGLHPILSLSKMDQTLAVYQQVLTSLPSQNVLQIANDLENLRDLLHLLAFSKSCSLPQTSGLQKPESLDSVLEASLYSTEVVALSRLQGSLQDILQQLDVSPEC
3.3

Tell us which BAF/3 bioassay: fold increase in bioactivity as compared to the WT mouse leptin antagonist value is on record for mouse leptin antagonist H12 (S97Y + L39A/D40A/F41A), P41160 22-167 (ligand) AVPIQKVQDDTKTLIKTIVTRINDISHTQSVSAKQRVTGAAAIPGLHPILSLSKMDQTLAVYQQVLTSLPSQNVLQIANDLENLRDLLHLLAFSKSCYLPQTSGLQKPESLDGVLEASLYSTEVVALSRLQGSLQDILQQLDVSPEC
0.8

These data points were gathered from patent US20130133089A1.
